# Experiment: Cytotoxicity against human HepG2 cells assessed as cell viability after 72 hrs by MTT assay
# Format: cell-based
# Condition: HepG2 cells
Returns: string. Value is Satisfied if measured CC50 at 72 h is below 9 µM, and Not satisfied if it is greater than or equal to it.

Known results for compounds:
CC(C)Nc1nc2cc(-c3ccc(Cl)cc3)sc2c(=O)[nH]1; Not satisfied
CC(C)Nc1nc2cc(-c3ccc(F)cc3)sc2c(=O)[nH]1; Not satisfied
CC(C)(C)Nc1nc2cc(-c3ccccc3)sc2c(=O)[nH]1; Not satisfied
CCCCNc1nc2cc(-c3ccc(C)cc3)sc2c(=O)[nH]1; Satisfied
CC(C)(C)Nc1nc2cc(-c3ccc(F)cc3)sc2c(=O)[nH]1; Satisfied

Check if CC50 at 72 h falls below 9 µM for `Cc1ccc(-c2cc3nc(NCc4ccccc4Cl)[nH]c(=O)c3s2)cc1` . Not satisfied

Please answer likewise for `CCCCCNc1nc2cc(-c3ccc(C)cc3)sc2c(=O)[nH]1` Satisfied

Please answer likewise for `Cc1cccc(-c2cc3nc(NC(C)(C)C)[nH]c(=O)c3s2)c1` Not satisfied

---

# Tested on: Salmonella typhimurium
# Experiment: Mutagenicity in Salmonella typhimurium TA100 at 2.5 mM after 1 hr by Ames test in absence of S9 fraction
# Format: toxicity, organism-based
# Condition: salmonella enterica subsp. enterica serovar typhimurium, 2500 µM
Property label: Activity

Cc1ccc(-c2cc3nc(NC(C)(C)C)[nH]c(=O)c3s2)cc1; Non-toxic
Cc1ccc(-c2cc3nc(NC(C)C)[nH]c(=O)c3s2)cc1; Non-toxic
[N-]=[N+]=[N-].[Na+] [SODIUM AZIDE]; Toxic
CCN(CCCl)CCCNc1c2ccc(Cl)cc2nc2ccc(OC)cc12; Toxic

Fill in the blank: the reported Activity of `CC(C)(C)Nc1nc2cc(-c3ccc(Cl)cc3)sc2c(=O)[nH]1` is ____. Non-toxic

---

# System: Salmonella typhimurium
# Experiment: Mutagenicity in Salmonella typhimurium TA97A at 2.5 mM after 1 hr by Ames test in absence of S9 fraction
# Type: toxicity, organism-based
# Condition: salmonella enterica subsp. enterica serovar typhimurium, 2500 µM
Property label: Activity

Field: example entries. Status: answers known.
CCN(CCCl)CCCNc1c2ccc(Cl)cc2nc2ccc(OC)cc12; Toxic
Cc1ccc(-c2cc3nc(NC(C)C)[nH]c(=O)c3s2)cc1; Non-toxic
CC(C)(C)Nc1nc2cc(-c3ccc(Cl)cc3)sc2c(=O)[nH]1; Non-toxic
[N-]=[N+]=[N-].[Na+] [SODIUM AZIDE]; Toxic

Please turn your attention to the following entry.
Fill in the blank: the reported Activity of `Cc1ccc(-c2cc3nc(NC(C)(C)C)[nH]c(=O)c3s2)cc1` is ____. Non-toxic

---

# Experiment: Cytotoxicity against human HepG2 cells assessed as cell viability after 72 hrs by MTT assay
# Assay type: cell-based
# Condition: HepG2 cells
Property label: CC50 at 72 h (µM)
Kindly answer with a numeric value in µM, unit omitted.

Field: example entries. Status: answers known.
Cc1ccc(-c2cc3nc(NCC(C)C)[nH]c(=O)c3s2)cc1; 21.6
CCCCCCNc1nc2cc(-c3ccc(C)cc3)sc2c(=O)[nH]1; 10.6

Please turn your attention to the following entry.
Fill in the blank: the reported CC50 at 72 h of CCCCCCC(C)Nc1nc2cc(-c3ccc(C)cc3)sc2c(=O)[nH]1 (stereo not given) is ____. 19.4

Attribution: ChEMBL document CHEMBL3414541
